- Test system: fibrinogen
- ASSAY: Fibrinogen assay (Example 45)
- Type: in vivo, cynomolgus monkeys
- EXPERIMENTAL_SETUP: plasma; day 29; escalating dose regimen
Label satisfied when fibrinogen levels is strictly below 200 mg/dL; otherwise label not satisfied.

Please indicate whether the reported fibrinogen levels of ISIS 416858: MOE gapmer, nucleobases 1275 to 1318 of SEQ ID NO: 1 (Table 8) (antisense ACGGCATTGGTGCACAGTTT; MOE gapmer, wing and gap sizes not given here) is strictly below 200 mg/dL. not satisfied

State whether 200 mg/dL exceeds fibrinogen levels recorded for ISIS 416838: MOE gapmer, nucleobases 1018 to 1042 of SEQ ID NO: 1 (Table 6) (antisense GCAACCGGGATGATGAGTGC; MOE gapmer, wing and gap sizes not given here) . satisfied

A record lists ISIS 416850: MOE gapmer, nucleobases 1275 to 1318 of SEQ ID NO: 1 (Table 8) (antisense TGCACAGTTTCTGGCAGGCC; MOE gapmer, wing and gap sizes not given here) . Is its fibrinogen levels below 200 mg/dL? not satisfied

---

Exercise: for every item that follows, state its recorded Bilirubin.
- ASSAY: Liver function, ALT, AST, bilirubin in cynomolgus monkeys (Example 45)
- Type: in vivo
- EXPERIMENTAL_SETUP: plasma; day 22; escalating dose regimen
Numbers only here, please. The scale is mg/dL.

Consider the substance ISIS 417002: MOE gapmer, nucleobases 1275 to 1318 of SEQ ID NO: 1 (Table 8) (antisense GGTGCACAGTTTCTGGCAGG; MOE gapmer, wing and gap sizes not given here) and give its recorded Bilirubin. 0.20

Using the record for ISIS 416838: MOE gapmer, nucleobases 1018 to 1042 of SEQ ID NO: 1 (Table 6) (antisense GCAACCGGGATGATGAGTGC; MOE gapmer, wing and gap sizes not given here) , state its measured Bilirubin. 0.17

For the substance ISIS 416850: MOE gapmer, nucleobases 1275 to 1318 of SEQ ID NO: 1 (Table 8) (antisense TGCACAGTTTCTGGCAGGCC; MOE gapmer, wing and gap sizes not given here) , report Bilirubin. 0.13

---

I'd appreciate it if you could supply eosinophils values for the items below.
- ASSAY: Hematology assays in cynomolgus monkeys (Example 45)
- Assay type: in vivo
- EXPERIMENTAL_SETUP: day 8
Entry rule: numbers only, all in %.

Output measured eosinophils for this item: ISIS 416864: MOE gapmer, nucleobases 1275 to 1318 of SEQ ID NO: 1 (Table 8) (antisense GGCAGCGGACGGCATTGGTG; MOE gapmer, wing and gap sizes not given here) 0.7

Identify eosinophils associated with the substance ISIS 416858: MOE gapmer, nucleobases 1275 to 1318 of SEQ ID NO: 1 (Table 8) (antisense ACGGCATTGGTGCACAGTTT; MOE gapmer, wing and gap sizes not given here) 0.3

Supply recorded eosinophils for ISIS 416838: MOE gapmer, nucleobases 1018 to 1042 of SEQ ID NO: 1 (Table 6) (antisense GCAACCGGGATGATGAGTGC; MOE gapmer, wing and gap sizes not given here) here. 0.4

Please report the measured eosinophils for ISIS 416850: MOE gapmer, nucleobases 1275 to 1318 of SEQ ID NO: 1 (Table 8) (antisense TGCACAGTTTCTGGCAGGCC; MOE gapmer, wing and gap sizes not given here) 1.1

Query eosinophils for ISIS 417002: MOE gapmer, nucleobases 1275 to 1318 of SEQ ID NO: 1 (Table 8) (antisense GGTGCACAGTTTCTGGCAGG; MOE gapmer, wing and gap sizes not given here) 0.2

---

- Design: species or system Sprague-Dawley rats
- EXPERIMENTAL_SETUP: rat, in vivo, sc, 20 mg/kg
For each of the substances below, state its Half-life of ISIS oligonucleotides in the liver and kidney.
For clarity, give the value followed by its unit.

Answer with the recorded Half-life of ISIS oligonucleotides in the liver and kidney for the substance listed here: 416863 (antisense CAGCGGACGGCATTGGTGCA; 5-10-5 gapmer, further chemistry not given here) [compound 416863] 20 days

Give the measured Half-life of ISIS oligonucleotides in the liver and kidney for 413482 (antisense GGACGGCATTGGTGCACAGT; 5-10-5 MOE gapmer, further chemistry not given here) [compound 413482] 20 days

Using known records, supply Half-life of ISIS oligonucleotides in the liver and kidney for 416856 (antisense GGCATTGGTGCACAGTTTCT; 5-10-5 gapmer, further chemistry not given here) [compound 416856] 19 days

Quote Half-life of ISIS oligonucleotides in the liver and kidney reported for 416867 (antisense ACTGGCAGCGGACGGCATTG; 5-10-5 gapmer, further chemistry not given here) [compound 416867] please. 19 days

Look up Half-life of ISIS oligonucleotides in the liver and kidney of 413481 (antisense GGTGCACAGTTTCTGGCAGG; 5-10-5 MOE gapmer, further chemistry not given here) [compound 413481] and report it. 21 days

Note down Half-life of ISIS oligonucleotides in the liver and kidney recorded for 416860 (antisense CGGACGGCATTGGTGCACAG; 5-10-5 gapmer, further chemistry not given here) [compound 416860] 21 days

---

Please go through the items and note down their Lymphocyte.
- EXPERIMENTAL_SETUP: mouse, in vivo, sc, 50 mg/kg
e = 2'-O-(2-methoxyethyl) (MOE); d = 2'-deoxy (DNA)
Answer by giving the amount and then stating its unit.

Let me know recorded Lymphocyte for ISIS 416855: MOE gapmer, nucleobases 1275 to 1318 of SEQ ID NO: 1 (Table 8) (antisense CATTGGTGCACAGTTTCTGG; MOE gapmer, wing and gap sizes not given here) , thanks. 4236 cells/μL

Hello, please tell me recorded Lymphocyte for this one: ISIS 416857: MOE gapmer, nucleobases 1275 to 1318 of SEQ ID NO: 1 (Table 8) (antisense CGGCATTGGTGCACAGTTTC; MOE gapmer, wing and gap sizes not given here) 3697 cells/μL

Name the recorded Lymphocyte of the substance listed here: ISIS 416848: MOE gapmer, nucleobases 1275 to 1318 of SEQ ID NO: 1 (Table 8) (antisense CACAGTTTCTGGCAGGCCTC; MOE gapmer, wing and gap sizes not given here) 5268 cells/μL

Quote Lymphocyte reported for ISIS 416859: MOE gapmer, nucleobases 1275 to 1318 of SEQ ID NO: 1 (Table 8) (antisense GACGGCATTGGTGCACAGTT; MOE gapmer, wing and gap sizes not given here) please. 4363 cells/μL

For ISIS 416862: MOE gapmer, nucleobases 1275 to 1318 of SEQ ID NO: 1 (Table 8) (antisense AGCGGACGGCATTGGTGCAC; MOE gapmer, wing and gap sizes not given here) , write its Lymphocyte. 4445 cells/μL

Tell me Lymphocyte reported for ISIS 416865: MOE gapmer, nucleobases 1275 to 1318 of SEQ ID NO: 1 (Table 8) (antisense TGGCAGCGGACGGCATTGGT; MOE gapmer, wing and gap sizes not given here) 5148 cells/μL

Tell me its Lymphocyte given ISIS 416861: MOE gapmer, nucleobases 1275 to 1318 of SEQ ID NO: 1 (Table 8) (antisense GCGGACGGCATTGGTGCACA; MOE gapmer, wing and gap sizes not given here) as the entry. 5119 cells/μL

Indicate its recorded Lymphocyte; the substance in question is ISIS 416849: MOE gapmer, nucleobases 1275 to 1318 of SEQ ID NO: 1 (Table 8) (antisense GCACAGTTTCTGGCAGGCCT; MOE gapmer, wing and gap sizes not given here) 6967 cells/μL

Identify measured Lymphocyte corresponding to ISIS 412225: 5-10-5 MOE gapmer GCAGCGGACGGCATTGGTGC (sugars from the 5' end e5 d10 e5, backbone and methylation of C not given here) 4969 cells/μL

Read off the recorded Lymphocyte for ISIS 413481: 5-10-5 MOE gapmer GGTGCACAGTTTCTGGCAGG (sugars from the 5' end e5 d10 e5, backbone and methylation of C not given here) 4329 cells/μL

Report Lymphocyte for ISIS 416852: MOE gapmer, nucleobases 1275 to 1318 of SEQ ID NO: 1 (Table 8) (antisense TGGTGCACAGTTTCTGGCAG; MOE gapmer, wing and gap sizes not given here) 3646 cells/μL

Look up Lymphocyte of ISIS 416851: MOE gapmer, nucleobases 1275 to 1318 of SEQ ID NO: 1 (Table 8) (antisense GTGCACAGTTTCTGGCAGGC; MOE gapmer, wing and gap sizes not given here) and report it. 4162 cells/μL

Quick one: give measured Lymphocyte for ISIS 416863: MOE gapmer, nucleobases 1275 to 1318 of SEQ ID NO: 1 (Table 8) (antisense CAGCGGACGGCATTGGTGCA; MOE gapmer, wing and gap sizes not given here) 5617 cells/μL

Provide only the value of recorded Lymphocyte for ISIS 416853: MOE gapmer, nucleobases 1275 to 1318 of SEQ ID NO: 1 (Table 8) (antisense TTGGTGCACAGTTTCTGGCA; MOE gapmer, wing and gap sizes not given here) 5184 cells/μL

All figures here come from patent US20230263822A1.
